System: SN12C
Test: NCI tumour cell line growth inhibition, 48 h
The source made the active and inactive calls. Cut-off read from the data, not from the text of the source: active = GI50 up to about 1.1 µM and inactive = higher.
Labels: 1 (active), -1 (inactive)

{"columns": ["COMPOUND", "TARGET ENTITY", "CLASSIFICATION"],
 "data": [
  ["O=C(O)CCCSc1nc2ccccc2s1", "SN12C", -1],
  ["COc1ccc(N2C(=O)C(=O)N(c3ccccc3[N+](=O)[O-])C2=S)cc1", "SN12C", -1],
  ["Nc1nc(SCc2ccccc2)c2ncn(Cc3ccccc3)c2n1", "SN12C", -1],
  ["CC1(c2cccc(C(F)(F)F)c2)CC(c2cccc(C(F)(F)F)c2)=C(C#N)C(=C(C#N)C#N)N1 (configuration not stated)", "SN12C", -1],
  ["COC(=O)C(=O)C(C(=O)C(=O)Nc1ccccc1C(=O)OC)c1nc2ccc(C(=O)c3ccccc3)cc2nc1O (configuration not stated)", "SN12C", -1],
  ["CCN1CCCCC(=N\\O)/C(=N/O)CCCC1", "SN12C", -1],
  ["CC1=N/C(=C\\c2c(O)ccc3ccccc23)C(=O)O1", "SN12C", -1],
  ["COc1cc2c(cc1OCCCCCOc1cc3c(cc1OC)C(=O)N1CCC[C@H]1C(=O)N3)N=C[C@@H]1CCCN1C2=O", "SN12C", 1],
  ["CN(C)CCCN1c2ccccc2Sc2ccc3ccccc3c21", "SN12C", -1],
  ["N=C(N)N/N=C/c1c(-c2ccc(Cl)cc2)nc2sccn12", "SN12C", -1],
  ["CC(C)CC(N)C(=O)NC(C(=O)NC(CCCNC(=N)N)C(=O)NC(CS)C(=O)NC1CSCC(C(=O)NC(Cc2ccccc2)C(=O)NC(C(=O)NC(CCCNC(=N)N)C(=O)O)C(C)C)NC(=O)C2CCCN2C(=O)C(CCCCN)NC(=O)C2CCCN2C(=O)C2CCCN2C(=O)C(Cc2ccc(O)cc2)NC(=O)C(CO)NC(=O)C(CCCCN)NC(=O)C(C(C)O)NC(=O)C(Cc2c[nH]c3ccccc23)NC1=O)C(C)C (configuration not stated)", "SN12C", -1],
  ["CCN(CC)CCOC(=O)Cc1cccc2c(=O)cc(-c3ccccc3)oc12", "SN12C", -1],
  ["CCOC(=O)C1Oc2ccc([N+](=O)[O-])cc2C1(C)O (configuration not stated)", "SN12C", -1],
  ["S=C1NC2=C(COc3ccccc32)C(c2ccc(Cl)cc2)N1 (configuration not stated)", "SN12C", -1],
  ["C[C@@H](CN1CC(=O)NC(=O)C1)N1CC(=O)NC(=O)C1 [DEXRAZOXANE]", "SN12C", -1],
  ["Cn1cnc([N+](=O)[O-])c1SCC(=O)O", "SN12C", -1],
  ["CC(C)(C)[Si](C)(C)OCC1OC(n2cnc3c(=O)[nH]c(N)nc32)C(O[Si](C)(C)C(C)(C)C)C1O[Si](C)(C)C(C)(C)C (configuration not stated)", "SN12C", -1],
  ["O=C1/C(=C/c2ccc([N+](=O)[O-])cc2)Oc2cc(O)ccc21", "SN12C", -1],
  ["CN(CCCNC(=O)c1cn(C)c2c1ccc1cc(Cl)c(Cl)cc12)CCCNC(=O)c1cn(C)c2c1ccc1cc(Cl)c(Cl)cc12", "SN12C", -1],
  ["C[Si](C)(C)C#CCO[Si](C)(C)C", "SN12C", -1],
  ["O=S(=O)(/C=C/c1ccc(Cl)cc1Cl)Cc1ccccc1CS(=O)(=O)/C=C/c1ccc(Cl)cc1Cl", "SN12C", -1],
  ["CN(C)CCCNC(=O)c1cc(NC(=O)c2cc(NC(=O)[C@@H]3C[C@H]3C(=O)Nc3cc(C(=O)Nc4cc(C(=O)NCCCN(C)C)n(C)c4)n(C)c3)cn2C)cn1C", "SN12C", -1],
  ["COC(=O)C1CC(=O)O[C@H]1c1ccc(OC)c(OC)c1 (some centres not stated)", "SN12C", -1],
  ["CC(=O)Oc1ccc2c(c1OC(C)=O)CCC1C2=CC[C@]2(C)C(=O)CCC12 (some centres not stated)", "SN12C", -1],
  ["c1ccc(Nc2nnc(CCCCCCCCc3nnc(Nc4ccccc4)o3)o2)cc1", "SN12C", -1],
  ["Nc1c(S(=O)(=O)c2ccccc2)c2nc3ccccc3nc2n2c1nc1ccccc12", "SN12C", -1],
  ["CC(=O)/C(=C/NC(=S)c1cccnc1)C(=O)Nc1ccccc1C", "SN12C", -1],
  ["Nc1nc(F)nc2c1ncn2C1OC(COP(=O)(O)O)C(O)C1O (configuration not stated)", "SN12C", -1],
  ["O=c1/c(=C/c2ccc([N+](=O)[O-])o2)sc2n1[C@@H](c1ccc3c(c1)OCO3)C=C(c1cc(F)c(Cl)cc1Cl)N=2", "SN12C", -1],
  ["CCOP(=O)(OCC)/C(C#N)=C(\\C)c1ccco1", "SN12C", -1],
  ["Cc1ccccc1-c1nc2c(N)nc(N)nc2nc1N", "SN12C", -1],
  ["CCCCCC1CC=CC(NC(=O)OCc2ccccc2)C1/C=C/CCCC1OCCO1 (configuration not stated)", "SN12C", -1],
  ["COC(=O)c1cc2cc3c(c(O)c2c(=O)o1)O[C@@]1(Oc2c(O)c4c(c(O)c2[C@H]1OC1CC(OC)C(O)C(C)O1)C(=O)C=C(OC)C4=O)[C@H](O)C3 (some centres not stated)", "SN12C", -1],
  ["O=CN1CCN(C(=O)c2ccco2)C1=S", "SN12C", -1],
  ["CCOC(=O)C1=C(C)OC(=O)[C@@]2(OC)C=C(Cl)[C@@]12C", "SN12C", -1],
  ["C=CCOC1=C2CC[C@H](O)[C@@]2(C)CCC1=O", "SN12C", -1],
  ["CN(C)CCNc1ccc2ncnc3c2c1C(=O)c1ccccc1-3", "SN12C", 1]
]}

Reference for the values: ChEMBL document CHEMBL1201862
